# Test system: rat TRPV1 channel (Rattus norvegicus, UniProt O35433)
# Construct: expressed in transfected cells; host or cells: SH-SY5Y (human neuroblastoma) stably expressing rat TRPV1, under puromycin selection
# Sequence (O35433 whole entry): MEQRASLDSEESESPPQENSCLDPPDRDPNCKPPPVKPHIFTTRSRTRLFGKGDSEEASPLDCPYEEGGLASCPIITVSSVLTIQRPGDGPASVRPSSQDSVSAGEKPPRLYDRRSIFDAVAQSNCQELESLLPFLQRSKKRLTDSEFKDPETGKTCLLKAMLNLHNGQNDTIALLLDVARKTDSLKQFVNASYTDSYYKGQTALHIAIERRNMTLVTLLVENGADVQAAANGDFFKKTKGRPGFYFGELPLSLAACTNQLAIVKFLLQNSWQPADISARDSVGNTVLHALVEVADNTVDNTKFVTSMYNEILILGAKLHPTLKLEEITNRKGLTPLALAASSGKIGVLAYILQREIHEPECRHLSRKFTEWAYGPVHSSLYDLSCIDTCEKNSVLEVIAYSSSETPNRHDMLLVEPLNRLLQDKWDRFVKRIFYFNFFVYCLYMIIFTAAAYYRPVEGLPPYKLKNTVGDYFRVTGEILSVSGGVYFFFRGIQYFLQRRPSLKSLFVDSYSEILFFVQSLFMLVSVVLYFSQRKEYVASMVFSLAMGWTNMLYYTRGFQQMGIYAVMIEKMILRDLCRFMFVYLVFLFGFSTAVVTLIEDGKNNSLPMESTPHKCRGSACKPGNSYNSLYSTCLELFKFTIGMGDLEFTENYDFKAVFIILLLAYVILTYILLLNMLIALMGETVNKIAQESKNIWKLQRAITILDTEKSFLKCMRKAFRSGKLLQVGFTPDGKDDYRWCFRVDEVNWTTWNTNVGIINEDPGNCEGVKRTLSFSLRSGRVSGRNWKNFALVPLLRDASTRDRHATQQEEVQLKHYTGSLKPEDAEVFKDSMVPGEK
# Assay info: Calcium microfluorometry assay on TRPV1-SH-SY5Y cells, single concentration 10 μM
# Assay type: cell-based
# Particulars: compound 10 μM, Fluo-4 NW fluorescence, Cap (10 μM capsaicin) = 100%
Classify by measured TRPV1 activation at 10 μM (% ± SD): rule met if it is equal to or exceeds 40%, rule not met if it is smaller.

Record CCCC(=O)OCC(=O)NCc1ccc(O)c(OC)c1 [Ex-16] ; criterion: TRPV1 activation at 10 μM (% ± SD) no lower than 40%. Met?
rule not met

Record COc1cc(CNC(=O)COC(=O)CC(C)C)ccc1O [Ex-20] ; criterion: TRPV1 activation at 10 μM (% ± SD) no lower than 40%. Met?
rule not met

Record COc1cc(CNC(=O)COC(=O)CC/C(C)=C/CC/C(C)=C/CC/C=C(\C)CCC=C(C)CCC=C(C)C)ccc1O (stereo in doubt) [Ex-52] ; criterion: TRPV1 activation at 10 μM (% ± SD) no lower than 40%. Met?
rule met

Record CCCCC(=O)OCC(=O)NCc1ccc(O)c(OC)c1 [Ex-18] ; criterion: TRPV1 activation at 10 μM (% ± SD) no lower than 40%. Met?
rule not met

Record CCCCCCCCCCCCCCC(=O)OCC(=O)NCc1ccc(O)c(OC)c1 [Ex-38] ; criterion: TRPV1 activation at 10 μM (% ± SD) no lower than 40%. Met?
rule met

Record COc1cc(CNC(=O)CCCC/C=C/C(C)C)ccc1O [Capsaicin, reference compound] ; criterion: TRPV1 activation at 10 μM (% ± SD) no lower than 40%. Met?
rule met
